assayedTarget: Replicative DNA helicase DnaB (Mycobacterium tuberculosis, UniProt P9WMR3)
experimentNotes: DnaB intein splicing inhibitors, dose response, biochemical, cell-free fluorescence (AID 449749)
Type: functional
Activity calls are given as the source filed them.
Choose the fitting class; nothing outside active, inactive is accepted.

Worked cases, answers included:
compound | labelValue
COC1(OC)C(/C=C/c2ccc(C)cc2)C(C#N)(C#N)C1(OC)OC (stereo not given) | inactive
O=C1C(Cl)=C(N2CCCCC2)C(=O)N1c1ccccc1 | active
Cc1cccc(CSC(Nc2ccc(F)cc2)=C(C#N)C#N)c1 | active

*Q* Hello, I am checking results. What call was entered for CS(=O)(=O)c1ccc(C(=O)OCC(=O)NC23CC4CC(CC(C4)C2)C3)cc1[N+](=O)[O-] ?
*A* active

*Q* Hello, I am checking results. What call was entered for O=C1c2ccccc2-c2nnc(-c3ccc(O)cc3)cc21 ?
*A* active

*Q* Hello, I am checking results. What call was entered for Cc1[nH]n(-c2ccccc2)c(=O)c1C(c1cccc([N+](=O)[O-])c1O)c1c(C)[nH]n(-c2ccccc2)c1=O ?
*A* active

*Q* Hello, I am checking results. What call was entered for COc1ccc(-c2cc(=O)n(-c3ccc([N+](=O)[O-])cc3)[nH]2)cc1 ?
*A* active

*Q* Hello, I am checking results. What call was entered for CCO/C(O)=C1\C(C)=NC(SCc2cc(O)[nH]n2)=C(C#N)C1c1cccs1 (stereo not given) ?
*A* active

*Q* Hello, I am checking results. What call was entered for Cn1c(SCC(=O)NCC2CCCO2)ncc(C(=O)Nc2ccc(Cl)cc2)c1=O (stereo not given) ?
*A* inactive

* * *

Tested on: Streptococcus
experimentNotes: Group A Streptococcus viability loss, dose response, counter-screen for streptokinase expression inhibitor project, luminescence, BacTiterGlo (AID 1915);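 note: potency for reduction of bacterial viability or growth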
Format: functional, organism-based
Calls of active or inactive are those of the source.
Please respond with reported EC50 for every item in the list.

moleculeSmiles | assayedTarget | EC50
Oc1ccc2ccccc2c1/C=N/Nc1nnc(-c2ncc[nH]2)c2ccccc12 | Streptococcus | 5.84 µM (active)
CC(C)CC(=O)NC(=S)NNC(=O)c1ccc(NC(=O)C2CCCCC2)cc1 | Streptococcus | 9.89 µM (active)
Cc1c(C(=O)NN=C(S)NCc2ccc(Cl)cc2)oc2ccccc12 | Streptococcus | > 150 µM (not active)
COc1ccc(OCCn2c(NC(=O)c3ccco3)nc3ccccc32)cc1 | Streptococcus | > 150 µM (not active)

Now look at this entry.
*Q* # EC50 lookup, item CCCSc1nsc(NC(=O)Nc2ccc(F)cc2F)n1
*A* 34.2 µM (active)

* * *

assayedTarget: Ubiquitin-conjugating enzyme E2 N (Homo sapiens);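 note: Dose-response confirmation in a TR-FRET assay detecting UBC13-driven polyubiquitin chain formation, inhibition measured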
Sequence (P61088 whole entry): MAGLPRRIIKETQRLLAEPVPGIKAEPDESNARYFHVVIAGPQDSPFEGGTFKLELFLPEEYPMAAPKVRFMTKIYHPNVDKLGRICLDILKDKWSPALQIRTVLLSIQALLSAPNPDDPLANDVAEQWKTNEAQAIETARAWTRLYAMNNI
Assay type: functional
Active and inactive are the calls of the source.
Choose the fitting class; nothing outside active, inactive is accepted.

Worked cases, answers included:
compound | labelValue
CC(C)c1ccc(OCC(=O)NNC(=S)NC(=O)C2CC2)cc1 | active
Cc1ccc(C(=O)N[C@@H](C)CN2C3=NC[C@@H](Cc4ccccc4)N3C[C@H]2Cc2ccc(O)cc2)cc1Br | inactive
CCCCCCCCCCCCCCC[C@@H](O)[C@@H](N)CO [DIHYDROSPINGOSINE] | active
Cn1c(=O)c2c(ncn2Cc2cccc(Cl)c2)n(C)c1=O | active
Cc1ccc(-c2oc3ncnc(N)c3c2-c2ccc(C)cc2)cc1 | active
CCCCCCOc1ccc(/C(C)=N/NC2=NCCN2)cc1[N+](=O)[O-] | active
CN(C)C/C=C/C(=O)Nc1cccc(-c2c[nH]c3ncnc(Oc4ccc(NC(=O)CC(=O)Nc5ccc(F)cc5)cc4F)c23)c1 | active
CC(C)(c1ccccc1)c1ccc(OCC(O)CNC2CCN(Cc3ccccc3)CC2)cc1 (stereo not drawn) | inactive

*Q* Hello, I am checking results. What call was entered for CC(C)(C)c1ccc(C(=O)N/N=C/c2ccccn2)cc1 ?
*A* inactive

*Q* Hello, I am checking results. What call was entered for CSc1nccc(Nc2ccccc2)c1C#N ?
*A* inactive

*Q* Hello, I am checking results. What call was entered for CCOC(=O)N1CCN(C(=O)c2ccc3c(c2)N(Cc2ccccc2)CCS3)CC1 ?
*A* inactive

*Q* Hello, I am checking results. What call was entered for Cc1cccc(N(C(=O)c2snc(C(N)=O)c2N)C(C(=O)NC2CCCC2)c2ccc(C)o2)c1 (stereo not drawn) ?
*A* inactive

*Q* Hello, I am checking results. What call was entered for CN(C)CCn1cnc2c(c1=N)C(c1ccccc1)c1ccc3ccccc3c1O2 (stereo not drawn) ?
*A* inactive
